The entries below come with measured EC50 values attached.
test system: CD34 + CD45RA- cells; assay: Expansion of CD34+CD45RA- cells compared to DMSO (EC50); type: cell-based; conditions: concentration of compound necessary to expand 50% more of CD34+CD45RA- cells as compared to cells treated with DMSO
Report only the number, with the unit nM understood.

[[record]]
compound = "COC(=O)c1ccc2c(c1)[nH]c1nc(Cc3ccccc3)nc(NCCCN(C)CC(O)COCc3ccccc3)c12 (centres unmarked)"
study_target = "CD34 + CD45RA- cells"
measured_property = "EC50"
measured = 101

[[record]]
compound = "COC(=O)c1ccc2c(c1)[nH]c1nc(Cc3cccc(F)c3)nc(NCCCN3CCCCC3)c12"
study_target = "CD34 + CD45RA- cells"
measured_property = "EC50"
measured = 20

[[record]]
compound = "COC(=O)c1ccc2c(c1)[nH]c1nc(Cc3cccs3)nc(NCCCN3CCCCC3)c12"
study_target = "CD34 + CD45RA- cells"
measured_property = "EC50"
measured = 8

[[record]]
compound = "COC(=O)c1ccc2c(c1)[nH]c1nc(Cc3ccccc3)nc(NCCS(N)(=O)=O)c12"
study_target = "CD34 + CD45RA- cells"
measured_property = "EC50"
measured = 67


Consider now this further compound.
Looking up COC(=O)c1ccc2c(c1)[nH]c1nc(Cc3ccccc3)nc(NCCN(C(C)C)C(C)C)c12 , I see its EC50 listed as 10.1
